System: biotinyl-Trp-oxazolone
EXPERIMENT: self-aminoacylation, catalytic enhancement (BWO) (fold over background); higher = more active; k-Seq, kA / k0A0; sequences stand for … in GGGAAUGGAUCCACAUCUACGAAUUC…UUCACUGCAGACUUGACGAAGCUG
This sample holds only a part of the variants without activity.
READOUT: self-aminoacylation

| SEQ | TARGET_ENTITY | READOUT | ENDPOINT_RESULT |
| --- | --- | --- | --- |
| AUGCACCUCGGUCAUCGGGUG [Fam2.2 aminoacylation ribozyme variant] | biotinyl-Trp-oxazolone | self-aminoacylation | 6.81 |
| CAACUUAAAACAAUCGGUCUG [Fam1A.1 aminoacylation ribozyme variant] | biotinyl-Trp-oxazolone | self-aminoacylation | 0.948 |
| AAGUUUCCUAACAGUCGCAAG [Fam3.1 aminoacylation ribozyme variant] | biotinyl-Trp-oxazolone | self-aminoacylation | 0.58 |
| AUUACCCUGUUCUUCGAGUGA [Fam2.1 aminoacylation ribozyme variant] | biotinyl-Trp-oxazolone | self-aminoacylation | 7.83 |
| AUACUCCUAGGUCAUCGGGUG [Fam2.2 aminoacylation ribozyme variant] | biotinyl-Trp-oxazolone | self-aminoacylation | 3.91 |

----------
System: biotinyl-Trp-oxazolone
EXPERIMENT: self-aminoacylation, catalytic enhancement (BWO) (fold over background); higher = more active; k-Seq, kA / k0A0; sequences stand for … in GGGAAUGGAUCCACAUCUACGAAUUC…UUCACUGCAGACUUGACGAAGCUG
Variants at the floor of the assay were thinned out.
Please mark Satisfied if the recorded self-aminoacylation is equal to or greater than 3, and Not satisfied if it falls below.

| SEQ | CLASS_NAME |
| --- | --- |
| AUUCACGUAGGUCCUCGGGUG [Fam2.2 aminoacylation ribozyme variant] | Satisfied |
| AUUACCCUGGUCAUCGAGUAU [Fam2.1 aminoacylation ribozyme variant] | Satisfied |
| AUUCACCUACGUCAACGGGUG [Fam2.2 aminoacylation ribozyme variant] | Not satisfied |
| AAGUUAGCUAAUAGUCUCAAG [Fam3.1 aminoacylation ribozyme variant] | Not satisfied |
| AUUACGAUGGUCAUCGAGUGA [Fam2.1 aminoacylation ribozyme variant] | Satisfied |

----------
System: biotinyl-Leu-oxazolone
EXPERIMENT: self-aminoacylation, catalytic enhancement (BLO) (fold over background); higher = more active; k-Seq, kA / k0A0; sequences stand for … in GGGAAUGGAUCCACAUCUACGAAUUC…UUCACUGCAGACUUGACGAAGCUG
This sample holds only a part of the variants without activity.
Please use the following self-aminoacylation ranges when assigning a class: lower bin (below 0.8), middle bin (0.8 to below 7), upper bin (7 or more)

| SEQ | CLASS_NAME |
| --- | --- |
| AUUCACCUAAGUCUUCGGGUG [Fam2.2 aminoacylation ribozyme variant] | middle bin |
| AUUACUCUGGUUAUCGAGUGA [Fam2.1 aminoacylation ribozyme variant] | upper bin |
| CCACACCUCAAGCAAUCGGUC [Fam1B.1 aminoacylation ribozyme variant] | middle bin |
| CCACACUUUAAACAAUCGGUC [Fam1B.1 aminoacylation ribozyme variant] | lower bin |
| AUUCUCCUAGGUCAUCCGGUG [Fam2.2 aminoacylation ribozyme variant] | upper bin |
| AAGUUUGAUAAUAGUCGCAAC [Fam3.1 aminoacylation ribozyme variant] | lower bin |
| AUUACCCUGUUCAUCCAGUGA [Fam2.1 aminoacylation ribozyme variant] | middle bin |

----------
Tested on: biotinyl-Trp-oxazolone
EXPERIMENT: self-aminoacylation, catalytic enhancement (BWO) (fold over background); higher = more active; k-Seq, kA / k0A0; sequences stand for … in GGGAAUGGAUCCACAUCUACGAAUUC…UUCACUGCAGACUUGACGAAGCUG
This sample holds only a part of the variants without activity.
READOUT: self-aminoacylation

| SEQ | READOUT | ENDPOINT_RESULT |
| --- | --- | --- |
| AUUCACCCAGGUCAUCGGGCG [Fam2.2 aminoacylation ribozyme variant] | self-aminoacylation | 2.97 |
| CUAGUUCAAACAAUCCGUCUG [Fam1A.1 aminoacylation ribozyme variant] | self-aminoacylation | 0.713 |
| CCACACUUCAAUAAAUCGGUC [Fam1B.1 aminoacylation ribozyme variant] | self-aminoacylation | 6.22 |
| AAUCCCCUGGUCAUCGAGUGA [Fam2.1 aminoacylation ribozyme variant] | self-aminoacylation | 5.97 |
| AUUAACCUAGAUCAUCGGGUG [Fam2.2 aminoacylation ribozyme variant] | self-aminoacylation | 2.54 |
| CUGCUUUAAACAAUCGGUCUG [Fam1A.1 aminoacylation ribozyme variant] | self-aminoacylation | 1.87 |
| CUACUUGAAACAAUGGGUCUG [Fam1A.1 aminoacylation ribozyme variant] | self-aminoacylation | 1.61 |
| AUGUUCGCUAAUAGUCGCAAG [Fam3.1 aminoacylation ribozyme variant] | self-aminoacylation | 1.67 |

----------
Test system: biotinyl-Phe-oxazolone
EXPERIMENT: self-aminoacylation, catalytic enhancement (BFO) (fold over background); higher = more active; k-Seq, kA / k0A0; sequences stand for … in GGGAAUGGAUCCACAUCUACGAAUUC…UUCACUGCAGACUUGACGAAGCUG
Fewer inactive variants are shown than the library holds.

| SEQ | self-aminoacylation |
| --- | --- |
| AAGUUUGCUAUUAGUCGCGAG [Fam3.1 aminoacylation ribozyme variant] | 4.31 |
| ACUACCCUGGUCAUCCAGUGA [Fam2.1 aminoacylation ribozyme variant] | 21.2 |
| AAGUUAGCUAAUAGUCGCAAG [Fam3.1 aminoacylation ribozyme variant] | 5.25 |
| AUUACCCUGAUCACCGAGUGA [Fam2.1 aminoacylation ribozyme variant] | 42.1 |
| AUUCCCUUGGUCAUCGAGUGA [Fam2.1 aminoacylation ribozyme variant] | 71.8 |
| CUGCUUCAAACAAUCGAUCUG [Fam1A.1 aminoacylation ribozyme variant] | 7.44 |
| AGUACCCUGUUCAUCGAGUGA [Fam2.1 aminoacylation ribozyme variant] | 17.4 |
| ACACACUUCAGGCAAUCGGUC [Fam1B.1 aminoacylation ribozyme variant] | 1.75 |
| CUUCACCUAGGUAAUCGGGUG [Fam2.2 aminoacylation ribozyme variant] | 1.56 |

----------
Tested on: biotinyl-Trp-oxazolone
EXPERIMENT: self-aminoacylation, catalytic enhancement (BWO) (fold over background); higher = more active; k-Seq, kA / k0A0; sequences stand for … in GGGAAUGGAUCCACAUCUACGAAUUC…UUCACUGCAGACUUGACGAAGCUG
Fewer inactive variants are shown than the library holds.
READOUT: self-aminoacylation

| SEQ | ENDPOINT_RESULT |
| --- | --- |
| UUACUACAAACAAUCGGUCUG [Fam1A.1 aminoacylation ribozyme variant] | 1.31 |
| AUCACCCUGGGCAUCGAGUGA [Fam2.1 aminoacylation ribozyme variant] | 11.2 |
| CUACUUCAAGCAAUCGGUGUG [Fam1A.1 aminoacylation ribozyme variant] | 3.13 |
| AUUCGGCUAGGUCAUCGGGUG [Fam2.2 aminoacylation ribozyme variant] | 4.77 |
| CCACAGUUCAAGCAGUCGGUC [Fam1B.1 aminoacylation ribozyme variant] | 0.757 |
| UUUACCCUGGUCAUCUAGUGA [Fam2.1 aminoacylation ribozyme variant] | 10.9 |
| AUUACUCUCGUCAUCGAGUGA [Fam2.1 aminoacylation ribozyme variant] | 4.11 |
| AAGUUUCCUAAUUGUCGCAAG [Fam3.1 aminoacylation ribozyme variant] | 0.994 |
| AUUCACCUACGUCAUGGGGUG [Fam2.2 aminoacylation ribozyme variant] | 1.67 |

----------
Tested on: biotinyl-Ile-oxazolone
EXPERIMENT: self-aminoacylation, catalytic enhancement (BIO) (fold over background); higher = more active; k-Seq, kA / k0A0; sequences stand for … in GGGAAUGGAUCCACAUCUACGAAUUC…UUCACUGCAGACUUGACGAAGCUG
This sample holds only a part of the variants without activity.
READOUT: self-aminoacylation

| SEQ | ENDPOINT_RESULT |
| --- | --- |
| CCACACUUCACGCAAUCAGUC [Fam1B.1 aminoacylation ribozyme variant] | 0.823 |
| AUUCACCUAGGUCAUCAGGAG [Fam2.2 aminoacylation ribozyme variant] | 0.957 |
| AUUCACCUAGGUCAUCGGUGG [Fam2.2 aminoacylation ribozyme variant] | 1.5 |
| CUACUUCAAACACUCAGUCUG [Fam1A.1 aminoacylation ribozyme variant] | 0.798 |

----------
System: biotinyl-Phe-oxazolone
EXPERIMENT: self-aminoacylation, catalytic enhancement (BFO) (fold over background); higher = more active; k-Seq, kA / k0A0; sequences stand for … in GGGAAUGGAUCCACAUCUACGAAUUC…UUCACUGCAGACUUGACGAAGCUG
Fewer inactive variants are shown than the library holds.
Short version: self-aminoacylation at least 2 is class 1, less is class 0.

| SEQ | CLASS_NAME |
| --- | --- |
| AUUACCCUGGUCGUCGAGUAA [Fam2.1 aminoacylation ribozyme variant] | class 0 |
| AGUACCCUGGUCAUCGAGGGA [Fam2.1 aminoacylation ribozyme variant] | class 0 |
| AAGUUAGCUAAUAGUCUCAAG [Fam3.1 aminoacylation ribozyme variant] | class 1 |
| CCACACUUCUAACAAUCGGUC [Fam1B.1 aminoacylation ribozyme variant] | class 0 |
| AUUCACCCAAGUCAUCGGGUG [Fam2.2 aminoacylation ribozyme variant] | class 1 |
| CCAGACUUCAGGCAAUCGGUC [Fam1B.1 aminoacylation ribozyme variant] | class 0 |
| CUACUACAUACAAUCGGUCUG [Fam1A.1 aminoacylation ribozyme variant] | class 0 |
| AUUACGCUGGUGAUCGAGUGA [Fam2.1 aminoacylation ribozyme variant] | class 1 |
| UAGUUUGCUAAAAGUCGCAAG [Fam3.1 aminoacylation ribozyme variant] | class 1 |
